- Measured target: Left-right determination factor 2 (Homo sapiens) (UniProt O00292)
- Sequence (O00292 whole entry, looked up): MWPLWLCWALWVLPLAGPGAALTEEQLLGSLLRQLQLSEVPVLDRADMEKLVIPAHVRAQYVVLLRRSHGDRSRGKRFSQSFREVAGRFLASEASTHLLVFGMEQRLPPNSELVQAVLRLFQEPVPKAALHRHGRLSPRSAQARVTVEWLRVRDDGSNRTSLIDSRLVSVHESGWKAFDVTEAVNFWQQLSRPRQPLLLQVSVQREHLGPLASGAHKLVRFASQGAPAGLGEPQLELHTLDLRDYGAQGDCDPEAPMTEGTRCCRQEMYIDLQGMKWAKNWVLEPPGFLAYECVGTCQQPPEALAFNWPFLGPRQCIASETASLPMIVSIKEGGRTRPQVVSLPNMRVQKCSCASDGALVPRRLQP
- Measurement description: LEFTY2 binders on small-molecule microarrays, primary screen, biochemical, small-molecule microarray, 635 nm fluorescence scan (AID 1110)
- Run conditions: LEFTY2 binding, higher = more signal
Short version: composite z-score at least 0.1 is criterion met, less is criterion not met.

Molecule: CC(C)[Si]1(C(C)C)OCc2cc(C3CC3)nc(-c3ccccc3)c21
Assigned class: criterion not met
//
Molecule: COC(=O)[C@@]1(Cc2ccc(OC)cc2)[C@H]2c3cc(C(=O)N(C)C)n(CCc4ccc(OC)c(Br)c4)c3C[C@H]2CN1C(=O)c1ccccc1
Assigned class: criterion not met
//
Molecule: C=C(COC)/C(=C/C[C@H](OC(C)=O)c1ccc(OCCO)cc1)c1cnc2ccccc2c1
Assigned class: criterion met
//
Molecule: C=C(COC)/C(=C/C[C@@H](OC(C)=O)c1cccc(OCCO)c1)c1cc(C(=O)OC)ccc1OC
Assigned class: criterion not met
//
Molecule: O=C1c2ccccc2[C@](Cc2ccccc2I)(C(=O)O)[C@H](c2ccc(CO)cc2)N1C1CCCCC1
Assigned class: criterion met
//
Molecule: CO[C@@H]1COC(=O)[C@@H]2CCCN2C(=O)CC=C[C@@H](C)[C@H](OC)COC(=O)[C@@H]2CCCN2C(=O)CC=C[C@H]1C
Assigned class: criterion met
//
Molecule: O=C1C2C=CC(C(O)Cc3ccccc3)N(Nc3ccc([N+](=O)[O-])cc3)C2C(=O)N1c1ccccc1 (centres undefined)
Assigned class: criterion not met
//
Molecule: C=CC[C@]1(C(=O)O)N=C(c2ccc(OCCCO)cc2)O[C@H]1c1ccccc1
Assigned class: criterion not met

--- query ---
I'd appreciate it if you could say whether CN1CCC(CCCO)=CC1C1CC1 (centres undefined) has composite z-score at least equal to 0.1.
criterion met

---

- Measured target: Neurogenic locus notch homolog protein 2 (Homo sapiens) (UniProt Q04721)
- Sequence (Q04721 whole entry, looked up): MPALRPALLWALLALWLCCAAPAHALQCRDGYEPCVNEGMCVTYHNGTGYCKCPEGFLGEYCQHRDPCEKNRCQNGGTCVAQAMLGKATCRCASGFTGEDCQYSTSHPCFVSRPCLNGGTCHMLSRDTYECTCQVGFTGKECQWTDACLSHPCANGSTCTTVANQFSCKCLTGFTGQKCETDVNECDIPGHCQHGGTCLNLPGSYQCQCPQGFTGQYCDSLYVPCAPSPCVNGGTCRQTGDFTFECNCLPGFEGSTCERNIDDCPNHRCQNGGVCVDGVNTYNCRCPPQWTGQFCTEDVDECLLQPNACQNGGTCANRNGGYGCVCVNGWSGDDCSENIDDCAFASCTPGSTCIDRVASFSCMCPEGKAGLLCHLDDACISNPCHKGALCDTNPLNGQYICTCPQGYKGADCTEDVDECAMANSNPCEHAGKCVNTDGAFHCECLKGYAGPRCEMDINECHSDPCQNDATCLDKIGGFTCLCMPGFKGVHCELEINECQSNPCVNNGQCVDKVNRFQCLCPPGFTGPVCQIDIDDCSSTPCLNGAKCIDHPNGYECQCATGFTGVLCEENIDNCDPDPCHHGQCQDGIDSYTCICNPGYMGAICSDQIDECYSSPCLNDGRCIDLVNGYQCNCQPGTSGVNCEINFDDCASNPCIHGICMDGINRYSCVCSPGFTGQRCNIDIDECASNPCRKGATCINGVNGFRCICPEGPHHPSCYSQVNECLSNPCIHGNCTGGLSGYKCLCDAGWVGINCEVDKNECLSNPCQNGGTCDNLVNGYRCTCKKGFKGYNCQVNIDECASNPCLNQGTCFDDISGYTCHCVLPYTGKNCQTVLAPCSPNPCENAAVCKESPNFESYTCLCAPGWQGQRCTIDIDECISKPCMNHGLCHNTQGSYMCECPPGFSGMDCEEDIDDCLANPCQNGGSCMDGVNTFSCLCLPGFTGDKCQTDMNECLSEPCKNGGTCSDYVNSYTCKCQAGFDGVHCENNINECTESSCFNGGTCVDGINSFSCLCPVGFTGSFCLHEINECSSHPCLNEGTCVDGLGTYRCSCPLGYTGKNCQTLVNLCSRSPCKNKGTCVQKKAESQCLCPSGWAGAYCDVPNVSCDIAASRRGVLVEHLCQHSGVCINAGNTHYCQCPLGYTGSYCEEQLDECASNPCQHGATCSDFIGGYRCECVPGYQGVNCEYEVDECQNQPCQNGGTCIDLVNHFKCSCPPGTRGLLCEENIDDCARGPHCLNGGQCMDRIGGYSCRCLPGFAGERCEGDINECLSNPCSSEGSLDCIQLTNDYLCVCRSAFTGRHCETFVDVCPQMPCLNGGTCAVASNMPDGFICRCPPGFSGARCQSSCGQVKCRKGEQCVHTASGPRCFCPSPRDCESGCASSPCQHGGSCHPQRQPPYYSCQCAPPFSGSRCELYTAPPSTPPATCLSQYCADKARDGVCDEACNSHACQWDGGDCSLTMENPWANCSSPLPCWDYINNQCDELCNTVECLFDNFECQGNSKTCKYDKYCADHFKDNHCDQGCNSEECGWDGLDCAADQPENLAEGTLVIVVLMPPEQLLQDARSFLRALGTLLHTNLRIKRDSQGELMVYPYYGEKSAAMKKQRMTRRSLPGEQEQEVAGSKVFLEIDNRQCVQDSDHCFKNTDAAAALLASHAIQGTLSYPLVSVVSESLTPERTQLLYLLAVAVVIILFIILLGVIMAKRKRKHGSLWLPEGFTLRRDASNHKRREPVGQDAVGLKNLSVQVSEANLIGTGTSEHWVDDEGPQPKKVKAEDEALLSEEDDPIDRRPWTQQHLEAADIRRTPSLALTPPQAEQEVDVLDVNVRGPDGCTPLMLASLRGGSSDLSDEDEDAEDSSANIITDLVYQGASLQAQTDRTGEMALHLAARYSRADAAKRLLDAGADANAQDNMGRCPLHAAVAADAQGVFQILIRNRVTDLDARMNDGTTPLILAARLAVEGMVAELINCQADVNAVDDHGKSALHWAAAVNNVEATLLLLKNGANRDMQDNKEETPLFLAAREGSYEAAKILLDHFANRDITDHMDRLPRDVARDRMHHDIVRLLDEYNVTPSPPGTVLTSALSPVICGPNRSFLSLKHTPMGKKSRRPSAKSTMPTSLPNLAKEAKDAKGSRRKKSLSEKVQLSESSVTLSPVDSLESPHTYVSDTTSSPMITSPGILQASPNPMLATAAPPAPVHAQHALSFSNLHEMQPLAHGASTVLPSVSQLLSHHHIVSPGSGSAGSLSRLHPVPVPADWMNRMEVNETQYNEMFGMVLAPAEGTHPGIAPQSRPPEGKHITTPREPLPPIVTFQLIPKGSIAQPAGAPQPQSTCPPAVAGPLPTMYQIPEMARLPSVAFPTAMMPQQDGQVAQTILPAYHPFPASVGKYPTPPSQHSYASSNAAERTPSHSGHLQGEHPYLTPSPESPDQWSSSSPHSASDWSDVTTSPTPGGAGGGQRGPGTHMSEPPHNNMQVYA
- Measurement description: Notch2 binders on small-molecule microarrays, primary screen, biochemical, small-molecule microarray, 635 nm fluorescence, stem cell growth factors (AID 1073)
- Run conditions: Notch2 binding, higher = more signal
compounds and their reported composite z-score

Use the examples below as a reference point.
Compound: O=C(CS)NCCCCCNC(=O)[C@H]1C[C@H]2C(=O)N3CCC[C@H]3C(=O)N2[C@H]1c1ccc(O)cc1
Measured target: Neurogenic locus notch homolog protein 2 (Homo sapiens) (UniProt Q04721)
composite z-score: -0.231

Compound: NC(=O)[C@H]1[C@@H]2C(=O)O[C@@H](c3ccccc3)[C@@H](c3ccccc3)N2[C@@H](c2ccc(O)cc2)[C@]12C(=O)Nc1ccc(C#CCCO)cc12
Measured target: Neurogenic locus notch homolog protein 2 (Homo sapiens) (UniProt Q04721)
composite z-score: -0.982

Compound: COCCOC(=O)N1C(=O)[C@@]2(c3cc(C#CCNC(N)=O)ccc31)[C@H](C(=O)N1CCCCCCC1)[C@H]1C(=O)O[C@H](c3ccccc3)[C@H](c3ccccc3)N1[C@@H]2c1ccccc1OCCO
Measured target: Neurogenic locus notch homolog protein 2 (Homo sapiens) (UniProt Q04721)
composite z-score: 1.38

Compound: CN(C)CCCC[C@@H]1NC(=O)[C@@H]2C[C@H](C(=O)O)[C@H](c3ccc(O)cc3)N2C1=O
Measured target: Neurogenic locus notch homolog protein 2 (Homo sapiens) (UniProt Q04721)
composite z-score: -0.0401

Compound: C=CCC(OC(C)=O)[C@@H]1[C@@H](N(Cc2cccc3ccccc23)C(=O)Cc2ccc(F)cc2)c2cc(OCCCO)ccc2N1C(=O)Cc1ccc2ccccc2c1 (some centres not stated)
Measured target: Neurogenic locus notch homolog protein 2 (Homo sapiens) (UniProt Q04721)
composite z-score: -0.241

Compound: CC(C)N1CC=CC23O[C@@H]4/C=C\CCCOC(=O)C4[C@H]2C(=O)N(CCO)[C@@H]3C1=O (some centres not stated)
Measured target: Neurogenic locus notch homolog protein 2 (Homo sapiens) (UniProt Q04721)
composite z-score: -0.933

Below: the item to evaluate.
Lab note: need composite z-score for CCCC=C(CCC)[C@@H](NS(=O)(=O)c1cccc(C(F)(F)F)c1)c1ccc(C(=O)OC)cc1 on Neurogenic locus notch homolog protein 2 (Homo sapiens) (UniProt Q04721), anyone have it?
0.318

The values you see were collected from PubChem BioAssay.
